System: Mus musculus
METHOD DESCRIPTION: Inhibition of IgE-induced PCA reaction in albino Swiss mouse at 3 mg/kg administered intradermally
Type: functional
REPORTED CONDITIONS: Mus musculus, albino Swiss
OBSERVATION TYPE: inhibition in vivo at 3 mg/kg (%)
The figure you give is taken to be in %; do not add the unit.

{"COMPOUND": "CN(C1CCc2ccccc2C1)C1CC(=O)c2ccccc21 (stereo not given)", "QUANTITATIVE READOUT": 83}
{"COMPOUND": "CN([C@@H]1CCc2ccccc2C1)[C@H]1CC(=O)c2ccccc21", "QUANTITATIVE READOUT": 111}
{"COMPOUND": "CN([C@H]1CCc2ccccc2C1)[C@@H]1CC(=O)c2ccccc21", "QUANTITATIVE READOUT": 68}
{"COMPOUND": "CN([C@@H]1CCc2ccccc2C1)[C@@H]1CC(=O)c2ccccc21", "QUANTITATIVE READOUT": 77}

Entry under test: CN([C@H]1CCc2ccccc2C1)[C@H]1CC(=O)c2ccccc21 . Its inhibition in vivo at 3 mg/kg was 73
